target: ATPase family AAA domain-containing protein 2 (Homo sapiens); assay: Binding affinity to human partial length ATAD2A (Q981 to R1108 residues) expressed in bacterial expression system by BROMOscan assay
Sequence (Q6PL18 whole entry, the tested form may be a part): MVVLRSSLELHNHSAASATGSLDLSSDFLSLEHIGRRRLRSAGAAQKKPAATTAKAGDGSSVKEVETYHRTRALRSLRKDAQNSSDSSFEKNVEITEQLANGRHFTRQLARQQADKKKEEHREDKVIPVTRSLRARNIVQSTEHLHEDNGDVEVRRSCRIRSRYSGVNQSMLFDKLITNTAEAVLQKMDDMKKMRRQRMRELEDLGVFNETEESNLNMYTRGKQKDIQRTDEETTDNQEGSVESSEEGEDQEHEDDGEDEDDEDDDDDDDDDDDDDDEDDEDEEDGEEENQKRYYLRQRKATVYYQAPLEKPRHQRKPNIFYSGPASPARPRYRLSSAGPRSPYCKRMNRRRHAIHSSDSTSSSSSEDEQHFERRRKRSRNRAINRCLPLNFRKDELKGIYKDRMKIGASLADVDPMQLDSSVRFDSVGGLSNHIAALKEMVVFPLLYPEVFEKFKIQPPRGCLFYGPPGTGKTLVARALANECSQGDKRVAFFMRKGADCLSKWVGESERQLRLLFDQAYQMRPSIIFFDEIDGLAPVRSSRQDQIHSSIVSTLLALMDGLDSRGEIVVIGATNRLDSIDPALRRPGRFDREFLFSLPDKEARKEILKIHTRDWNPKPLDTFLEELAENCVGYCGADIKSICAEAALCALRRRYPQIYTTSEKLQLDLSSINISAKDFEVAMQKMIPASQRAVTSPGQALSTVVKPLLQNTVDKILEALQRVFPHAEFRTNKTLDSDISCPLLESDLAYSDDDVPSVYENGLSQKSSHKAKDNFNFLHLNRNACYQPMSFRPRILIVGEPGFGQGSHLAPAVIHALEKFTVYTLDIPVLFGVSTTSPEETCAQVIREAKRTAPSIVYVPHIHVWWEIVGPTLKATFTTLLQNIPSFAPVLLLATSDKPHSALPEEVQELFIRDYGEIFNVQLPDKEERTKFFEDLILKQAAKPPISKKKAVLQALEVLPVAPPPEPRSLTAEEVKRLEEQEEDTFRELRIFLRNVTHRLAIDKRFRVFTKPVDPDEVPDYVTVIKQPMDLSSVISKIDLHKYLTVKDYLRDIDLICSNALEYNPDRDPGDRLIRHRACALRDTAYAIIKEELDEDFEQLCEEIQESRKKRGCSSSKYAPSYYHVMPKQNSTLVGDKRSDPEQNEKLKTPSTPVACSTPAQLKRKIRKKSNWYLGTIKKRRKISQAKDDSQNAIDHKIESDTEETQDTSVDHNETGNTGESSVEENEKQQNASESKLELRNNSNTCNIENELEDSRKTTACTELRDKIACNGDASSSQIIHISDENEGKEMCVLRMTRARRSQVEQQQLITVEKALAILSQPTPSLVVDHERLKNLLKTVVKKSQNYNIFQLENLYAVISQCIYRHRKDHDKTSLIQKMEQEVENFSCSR
measurement-type: Kd (µM)
Please give a number only; it is taken to be in µM.

Qu. Would you kindly share the measured Kd for Cc1cc2c(-c3ccco3)cnc(N[C@@H]3CCN(C)C[C@H]3C(=O)NC3CCCCC3)c2[nH]c1=O ?
Ans. 15.8

* * *

molecular target: Bromodomain-containing protein 4 (Homo sapiens, UniProt O60885, Y390A); test: Displacement of Alexa Fluor 647 labelled ligand from His6-thr-tagged BRD4 BD1 (1 to 477 residues)/BD2 Y390A mutant (unknown origin) after 30 mins by TR-FRET assay
As shown below, each of these compounds has a reported log10(IC50) value.
Please note: log10 values; quantity IC50; unit µM.

# compound, measured-value
rows = [
    ("Cc1cc2ccnc(N[C@@H]3CCNC[C@H]3C(=O)NC3CCCC3)c2[nH]c1=O (relative stereo)", 0.40),
    ("Cc1cc2ccnc(N[C@@H]3CCNC[C@H]3C(=O)N[C@H](C)C(C)C)c2[nH]c1=O (relative stereo)", 0.70),
    ("Cc1cc2c(-c3ccco3)cnc(N[C@H]3CCNC[C@@H]3C(=O)NC3CCCCC3)c2[nH]c1=O", 0.20),
    ("Cc1ccc(-c2cnc(N[C@@H]3CCN(C)C[C@H]3C(=O)NC3CCCCC3)c3[nH]c(=O)c(C)cc23)s1", -1.20),
    ("Cc1cc2c(-c3ccco3)cnc(N[C@@H]3CCNC[C@H]3C(=O)NC3CCCCC3)c2[nH]c1=O", -1.70),
    ("Cc1cc2ccnc(N[C@@H]3CCNC[C@H]3C(=O)NCC(C)C)c2[nH]c1=O (mixture of isomers)", 0.30),
    ("Cc1cc2c(-c3ccccc3)cnc(N[C@@H]3CCNC[C@H]3C(=O)NC3CCCCC3)c2[nH]c1=O (mixture of isomers)", -0.20),
    ("Cc1cc2ccnc(N[C@@H]3CCNC[C@H]3C(=O)NCC3CCCC3)c2[nH]c1=O (mixture of isomers)", 0.20),
]

Qu. Would you kindly share the measured log10(IC50) for Cc1cc2ccnc(N[C@@H]3CCNC[C@H]3C(=O)NCC3CC3)c2[nH]c1=O (mixture of isomers) ?
Ans. 0.50

Qu. Would you kindly share the measured log10(IC50) for Cc1cc2c(-c3ccco3)cnc(N[C@@H]3CCNC[C@H]3C(=O)NC3CCCCC3)c2[nH]c1=O (racemic) ?
Ans. -1.40

Qu. Would you kindly share the measured log10(IC50) for Cc1cc2c(-c3cccs3)cnc(N[C@@H]3CCN(C)C[C@H]3C(=O)NC3CCCCC3)c2[nH]c1=O ?
Ans. -1.80

Qu. Would you kindly share the measured log10(IC50) for Cc1cc2c(-c3ccsc3)cnc(N[C@@H]3CCNC[C@H]3C(=O)NC3CCCCC3)c2[nH]c1=O (mixture of isomers) ?
Ans. -1.00

Qu. Would you kindly share the measured log10(IC50) for Cc1cc2c(C3=CCOCC3)cnc(N[C@@H]3CCNC[C@H]3C(=O)NC3CCCCC3)c2[nH]c1=O (mixture of isomers) ?
Ans. 0.10

Qu. Would you kindly share the measured log10(IC50) for Cc1cc2c(C3=CCCC3)cnc(N[C@@H]3CCNC[C@H]3C(=O)NC3CCCCC3)c2[nH]c1=O (mixture of isomers) ?
Ans. -0.70

Qu. Would you kindly share the measured log10(IC50) for Cc1cc2ccnc(N[C@@H]3CCNC[C@H]3C(=O)NC3CCCCC3)c2[nH]c1=O (racemic) ?
Ans. -0.10

Qu. Would you kindly share the measured log10(IC50) for C/C=C/c1cnc(N[C@@H]2CCNC[C@H]2C(=O)NC2CCCCC2)c2[nH]c(=O)c(C)cc12 (racemic) ?
Ans. -0.90

Qu. Would you kindly share the measured log10(IC50) for Cc1cc2cccc(N[C@@H]3CCNC[C@H]3C(=O)NC3CCCCC3)c2[nH]c1=O (racemic) ?
Ans. 0.50

Qu. Would you kindly share the measured log10(IC50) for CO[C@@H](C)CNC(=O)[C@@H]1CNCC[C@H]1Nc1nccc2cc(C)c(=O)[nH]c12 (mixture of isomers) ?
Ans. 0.90

Qu. Would you kindly share the measured log10(IC50) for Cc1cc2c(C3=CCCCC3)cnc(N[C@@H]3CCNC[C@H]3C(=O)NC3CCCCC3)c2[nH]c1=O (mixture of isomers) ?
Ans. 0.00

Qu. Would you kindly share the measured log10(IC50) for Cc1cc2ccnc(N[C@@H]3CCNC[C@H]3C(=O)N[C@H]3CCCOC3)c2[nH]c1=O (mixture of isomers) ?
Ans. 1.40

Qu. Would you kindly share the measured log10(IC50) for Cc1ccsc1-c1cnc(N[C@@H]2CCN(C)C[C@H]2C(=O)NC2CCCCC2)c2[nH]c(=O)c(C)cc12 (relative stereo) ?
Ans. -1.00

Qu. Would you kindly share the measured log10(IC50) for Cc1cc2c(-c3cccs3)cnc(N[C@@H]3CCNC[C@H]3C(=O)NC3CCCCC3)c2[nH]c1=O (racemic) ?
Ans. -1.30

Qu. Would you kindly share the measured log10(IC50) for Cc1ccc(-c2cnc(N[C@@H]3CCN(C)C[C@H]3C(=O)NC3CCCCC3)c3[nH]c(=O)c(C)cc23)o1 ?
Ans. -1.60

Qu. Would you kindly share the measured log10(IC50) for Cc1cc2c(-c3ccoc3)cnc(N[C@@H]3CCNC[C@H]3C(=O)NC3CCCCC3)c2[nH]c1=O (mixture of isomers) ?
Ans. -1.40

Qu. Would you kindly share the measured log10(IC50) for Cc1cc2c(-c3cnn(C)c3)cnc(N[C@@H]3CCNC[C@H]3C(=O)NC3CCCCC3)c2[nH]c1=O (mixture of isomers) ?
Ans. -0.80

Qu. Would you kindly share the measured log10(IC50) for Cc1cc2c(-c3cnn(C)c3)cnc(N[C@@H]3CCN(C)C[C@H]3C(=O)NC3CCCCC3)c2[nH]c1=O ?
Ans. -1.10

Qu. Would you kindly share the measured log10(IC50) for Cc1csc(-c2cnc(N[C@@H]3CCN(C)C[C@H]3C(=O)NC3CCCCC3)c3[nH]c(=O)c(C)cc23)c1 ?
Ans. -1.30

meta.source: ChEMBL document CHEMBL4725292
